Test system: 168753-222-R-J1-PDC complex spheroid viability
Assay: Anticancer human tumor 168753-222-R-J1-PDC patient-derived bladder carcinoma cell line growth inhibition [CLK]; active means viability on the fitted dose curve at most 10% of control; inactive means the rest
Settings: second compound 0.1 µM; first compound 1 µM
Labels: active, inactive

- Nc1ccccc1NC(=O)c1ccc(CNC(=O)OCc2cccnc2)cc1 + CN1CCN(c2cc(C(=O)Nc3cc4cc(-c5cnn(C)c5)ccc4cn3)ccn2)CC1: inactive
- CC(CO)NC(=O)c1cc(-c2ccc(Cl)cc2)nn(-c2cnn(C)c2)c1=O (stereo not given) + CNC(=O)c1ccc(Nc2nc(OC3CCCC3)c3c(-c4ccc5nc(C)oc5c4)c[nH]c3n2)c(OC)c1: inactive
- COc1ccc([C@@H](O)c2cc(-c3ncnc4cc(N5CCOCC5)ccc34)c(F)cc2Cl)nn1 + CNC(=O)c1ccc(Nc2nc(OC3CCCC3)c3c(-c4ccc5nc(C)oc5c4)c[nH]c3n2)c(OC)c1: inactive
- COC1C=CCC(C)C(C)S(=O)(=O)NC(=O)c2ccc3c(c2)N(CC2CCC21)CC1(CCCc2cc(Cl)ccc21)CO3 (stereo not given) + CN1CCN(c2cc(C(=O)Nc3cc4cc(-c5cnn(C)c5)ccc4cn3)ccn2)CC1: inactive
- COc1c(OCCCN2CCOCC2)ccc2c3n(c(=NC(=O)c4cnc(N)nc4)nc12)CCN3 + CN1CCN(c2cc(C(=O)Nc3cc4cc(-c5cnn(C)c5)ccc4cn3)ccn2)CC1: active
- C#Cc1c(F)ccc2cc(O)cc(-c3ncc4c(N5CC6CCC(C5)N6)nc(OCC56CCCN5CC(F)C6)nc4c3F)c12 (stereo not given) + CN1CCN(c2cc(C(=O)Nc3cc4cc(-c5cnn(C)c5)ccc4cn3)ccn2)CC1: inactive
- O=C(c1cc(Cc2n[nH]c(=O)c3ccccc23)ccc1F)N1CCN(C(=O)C2CC2)CC1 + CNC(=O)c1ccc(Nc2nc(OC3CCCC3)c3c(-c4ccc5nc(C)oc5c4)c[nH]c3n2)c(OC)c1: inactive
- CC(=O)O[C@H]1C(=O)[C@@]2(C)[C@H]([C@H](OC(=O)c3ccccc3)[C@]3(O)C[C@H](OC(=O)[C@H](O)[C@@H](NC(=O)c4ccccc4)c4ccccc4)C(C)=C1C3(C)C)[C@]1(OC(C)=O)CO[C@@H]1C[C@@H]2O + CN1CCN(c2cc(C(=O)Nc3cc4cc(-c5cnn(C)c5)ccc4cn3)ccn2)CC1: inactive
- CCCS(=O)(=O)Nc1ccc(F)c(C(=O)c2c[nH]c3ncc(-c4ccc(Cl)cc4)cc23)c1F + CNC(=O)c1ccc(Nc2nc(OC3CCCC3)c3c(-c4ccc5nc(C)oc5c4)c[nH]c3n2)c(OC)c1: inactive
- CC1(C)CCC(CN2CCN(c3ccc(C(=O)NS(=O)(=O)c4ccc(NCC5CCOCC5)c([N+](=O)[O-])c4)c(Oc4cnc5[nH]ccc5c4)c3)CC2)=C(c2ccc(Cl)cc2)C1 + CN1CCN(c2cc(C(=O)Nc3cc4cc(-c5cnn(C)c5)ccc4cn3)ccn2)CC1: inactive

---

Item-by-item account of viability, T/C
System: 168753-222-R-J1-PDC complex spheroid viability
Assay: Anticancer human tumor 168753-222-R-J1-PDC cell line growth inhibition [CLK];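 further: luminescence signal used as surrogate for viable cell amount; viability measured after seven days of drug exposure; 100% = DMSO vehicle control wells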
Conditions: second compound 0.1 µM; first compound 0.0316 µM; stronger effect = lower value
From the text: A high-throughput screen of multi-cell type tumor spheroids was designed to identify active combinations of […] and targeted small molecules. Complex spheroids include a stromal component modeled by human endothelial cells (HUVEC) and fibroblasts modeled by human mesenchymal stem cells (MSCs). […] Compounds. […] If the clinical Cmax for an agent had not been determined, the highest concentration tested was 10 microM. […]
metric_name: viability, T/C (%)

* C=CC(=O)N1CCN(c2nc(=O)n(-c3c(C)ccnc3C(C)C)c3nc(-c4c(O)cccc4F)c(F)cc23)C(C)C1 (stereo not given) + CNC(=O)c1ccc(Nc2nc(OC3CCCC3)c3c(-c4ccc5nc(C)oc5c4)c[nH]c3n2)c(OC)c1 | 104
* CCc1c2c(nc3ccc(O)cc13)-c1cc3c(c(=O)n1C2)COC(=O)[C@]3(O)CC + CN1CCN(c2cc(C(=O)Nc3cc4cc(-c5cnn(C)c5)ccc4cn3)ccn2)CC1 | 20.5
* CC(CO)NC(=O)c1cc(-c2ccc(Cl)cc2)nn(-c2cnn(C)c2)c1=O (stereo not given) + CNC(=O)c1ccc(Nc2nc(OC3CCCC3)c3c(-c4ccc5nc(C)oc5c4)c[nH]c3n2)c(OC)c1 | 102
* Nc1ccccc1NC(=O)c1ccc(CNC(=O)OCc2cccnc2)cc1 + CN1CCN(c2cc(C(=O)Nc3cc4cc(-c5cnn(C)c5)ccc4cn3)ccn2)CC1 | 50
* O=C(c1cc(Cc2n[nH]c(=O)c3ccccc23)ccc1F)N1CCN(C(=O)C2CC2)CC1 + CN1CCN(c2cc(C(=O)Nc3cc4cc(-c5cnn(C)c5)ccc4cn3)ccn2)CC1 | 45.6
